Hello, the source for this data is paper PMC8583782, in case you need it.

Reported IC50 values are given for each entry in this list.
Target desc: HYAL (bovine testis hyaluronidase) (Bos taurus, UniProt Q2YDK3)
Construct: gene SPAM1; commercial native preparation from bovine testis (Merck)
Sequence (Q2YDK3 36-553): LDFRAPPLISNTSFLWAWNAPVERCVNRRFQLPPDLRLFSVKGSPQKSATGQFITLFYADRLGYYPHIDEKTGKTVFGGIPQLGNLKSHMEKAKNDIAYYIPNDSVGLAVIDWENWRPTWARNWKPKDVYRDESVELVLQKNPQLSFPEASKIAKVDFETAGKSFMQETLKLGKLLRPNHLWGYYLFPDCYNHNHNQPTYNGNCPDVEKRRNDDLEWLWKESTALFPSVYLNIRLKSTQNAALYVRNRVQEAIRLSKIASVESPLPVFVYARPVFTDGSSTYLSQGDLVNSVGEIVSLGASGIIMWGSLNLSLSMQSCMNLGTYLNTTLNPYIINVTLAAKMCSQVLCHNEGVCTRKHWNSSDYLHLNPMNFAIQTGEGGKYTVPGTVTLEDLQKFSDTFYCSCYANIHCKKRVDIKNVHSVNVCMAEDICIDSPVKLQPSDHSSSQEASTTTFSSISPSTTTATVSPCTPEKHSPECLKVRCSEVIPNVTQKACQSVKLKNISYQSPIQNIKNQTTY
Test description: hyaluronidase inhibition assay
Type: biochemical
Experimental conditions: tested at […]; read-out: Anti-Inflammatory Activity / HYAL / IC50 (μM) ^a
Value expressed in µM; do not type the unit.

Solved entries:
COC(=O)c1ccccc1O[C@@H]1O[C@H](CO[C@@H]2OC[C@@H](O)[C@H](O)[C@H]2O)[C@@H](O)[C@H](O)[C@H]1O: 64
Oc1cc(O)c2c(c1)O[C@H](c1ccc(O)c(O)c1)[C@H](O)[C@H]2c1c(O)cc(O)c2c1O[C@H](c1ccc(O)c(O)c1)[C@H](O)C2 [PB2, epicatechin-(4β→8)-epicatechin]: 37.4
O=C(O)[C@H]1O[C@@H](Oc2c(-c3ccc(O)c(O)c3)oc3cc(O)cc(O)c3c2=O)[C@H](O)[C@@H](O)[C@@H]1O [MQ, quercetin 3-O-β-D-glucuronopyranoside]: 98.2
O=C(/C=C/c1ccc(O)c(O)c1)O[C@@H]1C[C@](O)(C(=O)O)C[C@@H](O)[C@H]1O: 80.7
Oc1cc(O)c2c(c1)O[C@H](c1ccc(O)c(O)c1)[C@H](O)C2 [ECA, (−)-epicatechin]: 81.9
O=c1c(O)c(-c2ccc(O)c(O)c2)oc2cc(O)cc(O)c12: 102

Consider now this further compound.
API: value(readout=IC50, system=HYAL (bovine testis hyaluronidase) (Bos taurus, UniProt Q2YDK3)) for record O=C(O)[C@H]1O[C@@H](Oc2c(-c3ccc(O)c(O)c3)oc3cc(O)cc(O)c3c2=O)[C@H](O[C@@H]2OC[C@@H](O)[C@H](O)[C@H]2O)[C@@H](O)[C@@H]1O
98.1

* * *

Target desc: HYAL (bovine testis hyaluronidase) (Bos taurus, UniProt Q2YDK3)
Construct: gene SPAM1; commercial native preparation from bovine testis (Merck)
Test description: hyaluronidase inhibition assay
Assay type: biochemical
Experimental conditions: positive control; read-out: Anti-Inflammatory Activity / HYAL / IC50 (μM) ^a
Test readout: IC50 (µM)
Form entry: value (µM) — number only.

C[C@@H]1C[C@H]2[C@@H]3CCC4=CC(=O)C=C[C@]4(C)[C@@]3(F)[C@@H](O)C[C@]2(C)[C@@]1(O)C(=O)CO [DEX, dexamethasone, reference compound]: 36.1

Turning now to a further compound:
Param readout = IC50; param system = HYAL (bovine testis hyaluronidase) (Bos taurus, UniProt Q2YDK3); param query = COc1ccc2c(c1)c(CC(=O)O)c(C)n2C(=O)c1ccc(Cl)cc1 [IND, indomethacin, reference compound] ; response: value
35.7
